- Test method notes: gradient 5% acetonitrile 3 min, to 50% in 2 min, to 85% in 15 min, held 3 min, 100 µL/min
- Particulars: column: Zorbax Extend-C18 2.1 x 50 mm; eluents: water / acetonitrile, 0.1% formic acid
Listed here are molecules together with their documented RP-LC retention time.

>  <Molecule>
O=C(Cn1cccc1-c1nnc(C2CC2)o1)N1CCN(c2ccccc2)CC1

>  <RP-LC retention time>
821 s

$$$$
>  <Molecule>
COc1ccc(C(=O)CSc2nnnn2-c2cccc(C)c2)cc1

>  <RP-LC retention time>
941 s

$$$$
>  <Molecule>
CCN1CCC2(CC1)N=C(c1ccc(Br)cc1)CC(c1cccc(OC)c1O)N2 (stereo not drawn)

>  <RP-LC retention time>
618 s

$$$$
>  <Molecule>
Cn1ccc2ccn(CC(=O)Nc3ccc(Br)cc3)c(=O)c21

>  <RP-LC retention time>
795 s

$$$$
>  <Molecule>
O=C(c1csc(S(=O)(=O)N2CCC(C(=O)N3CCOCC3)CC2)c1)N1CCCCCC1

>  <RP-LC retention time>
718 s

$$$$
>  <Molecule>
COc1ccc(-c2nc(-c3cccc(-c4ccn[nH]4)c3)no2)cc1

>  <RP-LC retention time>
1000 s

$$$$
>  <Molecule>
COc1cccc(-c2nc(-c3cccc(-c4ccnn4C)c3)no2)c1OC

>  <RP-LC retention time>
1020 s

$$$$
>  <Molecule>
O=C(C1CCC1)N1CCc2c([nH]c3ccccc23)C1c1ccc(Cl)cc1 (stereo not drawn)

>  <RP-LC retention time>
1230 s

$$$$
